Target: T1, HMGB1 domain A C44S (UniProt P09429 9-79, C45S)
T1 sequence: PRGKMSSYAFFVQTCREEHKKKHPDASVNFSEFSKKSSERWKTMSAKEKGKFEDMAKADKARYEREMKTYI
Assay: EMSA
QUANTITY MEASURED: Kd (nM)
The figure you give is taken to be in nM; do not add the unit.

Give the value of Kd reported for the following: 25-bp cisplatin-modified TGGA probe (dsDNA, cisplatin 1,2-d(GpG) intrastrand cross-link at N7 of G13 and G14 of strand 1) DNA 1: CCTCTCCTCTCTGGATCTTCTCTCC DNA 2: GGAGAGAAGATCCAGAGAGGAGAGG
1.6
